Species on record: Homo sapiens
TEST NAME: Inhibition of mitochondrial complex I (unknown origin) at 1 uM incubated for 15 mins by microplate reader analysis relative to control
We use 3% as the dividing line for inhibition: on or above the line is MET, below is NOT MET.

ENTRY SMILES: Cc1cc(C(=O)Nc2ccc(OC(F)(F)F)cc2)nn1Cc1cccc(N(C)C2CCOCC2)c1
LABEL: MET
//
ENTRY SMILES: Cc1cc(C(=O)Nc2cccc(OC(F)(F)F)c2)nn1Cc1cccc(N2CCN(C(=O)C3CC3)CC2)c1
LABEL: MET
//
ENTRY SMILES: Cc1cc(C(=O)Nc2ccc(OC(F)(F)F)cc2)nn1Cc1ccc(N2CCC(S(C)(=O)=O)CC2)cc1
LABEL: MET
//
ENTRY SMILES: Cc1cc(C(=O)Nc2ccc(F)cc2)nn1Cc1cccc(N2CCN(C(=O)C3CC3)CC2)c1
LABEL: MET

Lab note: next compound to report on.
Entry Cc1cc(C(=O)Nc2ccc(OC(F)(F)F)cc2)nn1Cc1cccnc1 : is its inhibition no less than 3%?
NOT MET

---

TEST NAME: Apparent permeability across basolateral side to apical in human Caco-2 cells incubated for 120 mins by LC-MS/MS analysis
Assay type: ADME, cell-based
As shown below, each of these molecules has a reported Papp B→A at 2 h value.
Give the value in ×10⁻⁶ cm/s but do not write ×10⁻⁶ cm/s after it.

The cases that follow already have their Papp B→A at 2 h on record.
ENTRY SMILES: Cc1cc(C(=O)Nc2ccc(OC(F)(F)F)cc2)nn1Cc1cccc(N2CCN(C(=O)C3CC3)CC2)c1
MEASURE NAME: Papp B→A at 2 h
UNIT NAME: ×10⁻⁶ cm/s
VALUE: 3.25
//
ENTRY SMILES: Cc1cc(C(=O)Nc2ccc(C(F)(F)F)cc2)nn1Cc1cccc(N2CCN(C(=O)C3CC3)CC2)c1
MEASURE NAME: Papp B→A at 2 h
UNIT NAME: ×10⁻⁶ cm/s
VALUE: 3.08

As a next step, examine the molecule that follows.
Entry Cc1nc(-c2nc(-c3ccc(OC(F)(F)F)cc3)no2)nn1Cc1cccc(N2CCC(S(C)(=O)=O)CC2)c1 : reported Papp B→A at 2 h = ?
3.33

---

Quick reference for pIC50 among some compounds
TEST NAME: Inhibition of mitochondrial complex I (unknown origin) incubated for 15 mins by microplate reader analysis
Set-up: species or system Homo sapiens
// pIC50 is dimensionless: -log10 of concentration (M)

Check out these entries, answers already filled in.
ENTRY SMILES: Cc1cc(C(=O)Nc2ccc(OC(F)(F)F)cc2)nn1Cc1cccc(N2CCN(C(=O)C3CC3)CC2)c1
pIC50: 5.94

ENTRY SMILES: CS(=O)(=O)C1CCN(c2cccc(Cn3nc(C(=O)Nc4ccc(OC(F)(F)F)cc4)c4c5nn(c6c5CCC6)c43)c2)CC1
pIC50: 4.04

ENTRY SMILES: Cc1nc(-c2nc(-c3ccc(OC(F)(F)F)cc3)no2)nn1Cc1cccc(N2CCC(S(C)(=O)=O)CC2)c1
pIC50: 3.94

Suppose we examine the compound CS(=O)(=O)C1CCN(c2cccc(Cn3nc(C(=O)Nc4ccc(OC(F)(F)F)cc4)c4c5nn(c6c5COCC6)c43)c2)CC1 ; what pIC50 value has been reported?
4.00

Item Cc1cc(C(=O)Nc2ccc(OC(F)(F)F)cc2)nn1Cc1cccc(-c2ccc(S(C)(=O)=O)cc2)c1 has what recorded pIC50?
6.07

Need pIC50 of CC(C)(C)c1cc(C(=O)Nc2ccc(OC(F)(F)F)cc2)nn1Cc1cccc(N2CCC(S(C)(=O)=O)CC2)c1 , thanks.
5.87

Fill blank: measured pIC50 of the compound CS(=O)(=O)C1CCN(c2cccc(Cn3nc(C(=O)Nc4ccc(OC(F)(F)F)cc4)cc3-c3ccccc3)c2)CC1 is ____.
5.85

# lookup: pIC50 of Cc1cc(C(=O)Nc2ccc(OC(F)(F)F)cc2)nn1Cc1cccc(N2CCN(S(C)(=O)=O)CC2)c1
5.97

Query: pIC50; subject: Cc1cc(C(=O)Nc2ccc(C(F)(F)F)cc2)nn1Cc1cccc(N2CCN(C(=O)C3CC3)CC2)c1
6.08

Query: pIC50; subject: Cc1cc(C(=O)Nc2ccc(OC(F)(F)F)cc2)nn1Cc1cccc(N2CCC(S(C)(=O)=O)CC2)c1
6.02

Would you mind telling me what pIC50 value was observed for CS(=O)(=O)C1CCN(c2cccc(Cn3nc(C(=O)Nc4ccc(OC(F)(F)F)cc4)c4c5nn(c6ccccc56)c43)c2)CC1 ?
4.04

Origin of values: ChEMBL document CHEMBL5620406
